Biological target: T1, hen egg-white lysozyme (hen, UniProt P00698 19-147)
T1 construct: also called HEL
T1 sequence (P00698 19-147): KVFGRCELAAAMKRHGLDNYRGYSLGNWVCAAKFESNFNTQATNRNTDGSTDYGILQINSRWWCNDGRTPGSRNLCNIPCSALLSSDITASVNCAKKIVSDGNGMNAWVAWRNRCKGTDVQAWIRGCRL
Assay: Biacore kinetics, HEL immobilised on CM5 chip, buffer E (reducing), 25 °C, 1:1 Langmuir model
Measured kon of individual entries

[
  {
    "binder": "H4S cysteine mutant A26C (not conjugated) (designed binder, Free cysteine mutant, measured in reducing conditions) MRGSHHHHHHGSVKVKFFWNGEEKEVDTSKIVWVKRCGKSVLFIYDDNGKNGYGDVTEKDAPKELLDMLARAEREKKLN",
    "unitAbbrev": "M⁻¹ s⁻¹",
    "kon": 380000
  },
  {
    "binder": "H4S cysteine mutant V21C (not conjugated) (designed binder, Free cysteine mutant, measured in reducing conditions) MRGSHHHHHHGSVKVKFFWNGEEKEVDTSKICWVKRAGKSVLFIYDDNGKNGYGDVTEKDAPKELLDMLARAEREKKLN",
    "unitAbbrev": "M⁻¹ s⁻¹",
    "kon": 40000
  },
  {
    "binder": "H4S(wt) (designed binder, Nanofitin derived from Sac7d (Sulfolobus acidocaldarius), H4 with Cys29 changed into Ser29; His-tagged; also called H4S protein; parental Nanofitin H4S(wt)) MRGSHHHHHHGSVKVKFFWNGEEKEVDTSKIVWVKRAGKSVLFIYDDNGKNGYGDVTEKDAPKELLDMLARAEREKKLN",
    "unitAbbrev": "M⁻¹ s⁻¹",
    "kon": 490000
  }
]

Origin of measurements: patent EP2469278A1
